Assay: gradient 5% acetonitrile 3 min, to 50% in 2 min, to 85% in 15 min, held 3 min, 100 µL/min
Settings: column: Zorbax Extend-C18 2.1 x 50 mm; eluents: water / acetonitrile, 0.1% formic acid
observed-property: RP-LC retention time (s)

I. NC(=O)C1(c2ccccc2F)CC1
II. CC(C)c1noc(-c2cc(=O)n(CC(=O)Nc3cc(F)ccc3F)c3ccccc23)n1
// which entry reports the smaller RP-LC retention time, I or II ? Kindly state the label of the option you pick. I
(I: 681 s, II: 1040 s)

1. COCc1c(C(=O)O)nnn1-c1ccc(C)c(C)c1
2. CC(=O)Oc1ccc(OC(C)=O)c2c1CC(C)=C(C)C2
Given 1 and 2 , report the one with the higher recorded RP-LC retention time. Kindly state the label of the option you pick. 2

a. COCC1CN(C(=O)c2ccc(Br)o2)CCC1(F)F (stereo not given)
b. CC(=O)N1CCN(S(=O)(=O)c2cccc(C(=O)NCc3cccnc3)c2)CC1
Given a and b , report the one with the higher recorded RP-LC retention time. Kindly state the label of the option you pick. a
(a: 847 s, b: 533 s)

---

Test: gradient 5% acetonitrile 3 min, to 50% in 2 min, to 85% in 15 min, held 3 min, 100 µL/min
Conditions: column: Zorbax Extend-C18 2.1 x 50 mm; eluents: water / acetonitrile, 0.1% formic acid
observed-property: RP-LC retention time (s)

compound	units-of-measure	RP-LC retention time
COc1ccc(-c2noc(Cc3nnc(-c4cccc(Br)c4)o3)n2)cc1OC	s	988
O=C(c1cc(F)ccc1F)N1CCC(OCC2CC2)C1 (stereo not given)	s	772
COc1ccccc1-c1nc(-c2ccc3c(c2)oc(=O)n3C(C)C)no1	s	1090
CCc1noc(NC(C)=O)c1-c1ccc(C)c(S(=O)(=O)N2CCN(C(=O)c3ccco3)CC2)c1	s	758
Cc1noc(C)c1CCNC(=O)c1ccc2nc(Cc3ccccc3)oc2c1	s	830

---

Test: gradient 5% acetonitrile 3 min, to 50% in 2 min, to 85% in 15 min, held 3 min, 100 µL/min
Details: column: Zorbax Extend-C18 2.1 x 50 mm; eluents: water / acetonitrile, 0.1% formic acid
observed-property: RP-LC retention time (s)

Worked set:
molecule	observed-property	units-of-measure	readout-number
O=C(O)c1cc(-c2ccc(Cl)s2)nc2ccccc12	RP-LC retention time	s	1070
COC(=O)c1nnc2c(-c3ccc(F)cc3)c(C)nn2c1C	RP-LC retention time	s	855
Cc1ccc(C(=O)N2CCC(C(=O)N3CCCCCCNC(=O)CC3)CC2)s1	RP-LC retention time	s	668
COC(=O)c1c(-c2ccc(F)cc2)noc1NCCc1cccs1	RP-LC retention time	s	1090
Cc1ccc(Cn2c(N3CCCC(C(=O)Nc4ccc(C)c(F)c4)C3)nc3ccsc3c2=O)cc1 (stereo not drawn)	RP-LC retention time	s	1170

A. CCOC(=O)c1[nH]c(C)c(C(=O)N2CCC(CC(=O)NC3CC3)CC2)c1C
B. Cc1ccccc1Cn1nc(-c2nc(C(C)(C)C)no2)ccc1=O
Given A and B , report the one with the higher recorded RP-LC retention time. Kindly state the label of the option you pick. B
(B: 1120 s, A: 628 s)

---

Assay: gradient 5% acetonitrile 3 min, to 50% in 2 min, to 85% in 15 min, held 3 min, 100 µL/min
Settings: column: Zorbax Extend-C18 2.1 x 50 mm; eluents: water / acetonitrile, 0.1% formic acid
observed-property: RP-LC retention time (s)

smiles	units-of-measure	RP-LC retention time
Cc1cc(C)n2c(Nc3ccc4c(c3)OCCO4)c(-c3cccc(Br)c3)nc2n1	s	759
CCn1cc(-c2ccc(C)cc2)cc1C(=O)NCCN(C)C	s	680
O=C(Cn1nc(N2CCOCC2)c2ccccc2c1=O)Nc1ccc2c(c1)OCCO2	s	737
COc1c2c(cc3c1OCO3)CCN(C)C2	s	598
COc1ccc(NC(=O)N2CCc3cn(C)c4cccc(c34)C2)cc1OC	s	794
